- TEST: NCI Yeast Anticancer Drug Screen. Data for the mec2-1 strain (AID 157)
- PARTICULARS: S. cerevisiae mec2-1 strain, at 5.0 µM (retest, dose inferred, filed as 0.5), active compounds read high
Compounds without any hit were thinned out: in the full panel of roughly 79,000, 15% have a hit.
// reported growth inhibition for each item listed
Use % as the unit, but write only the number.

CC(C)C(CC(C)(C)C)OC(=O)Nc1cccc2ccccc12 (stereo not given) :: -1
[Cl][Sn]([O][Sn]([Cl])([c]1ccccc1)[CH]1CCCCC1)([c]1ccccc1)[CH]1CCCCC1 (stereo not given) :: 7
OCCc1ccc(-n2cnc3c(Nc4ccc(Cl)cc4)ncnc32)cc1 :: -4
CCCCCC(C1SC(=S)NC1=O)C1SC(=S)NC1=O (stereo not given) :: 2
O=C(C[n+]1cccc2ccccc21)c1ccc(-c2ccc(C(=O)C[n+]3cccc4ccccc43)cc2)cc1 :: 50
Cc1nc2ccc3c(ccc4nc(C)c(N=Nc5ccc(C(=N)N)cc5)c(O)c43)c2c(O)c1N=Nc1ccc(C(=N)N)cc1 :: 0
COC1=CC(=O)[C@H]2CC(C)=CC[C@]2(C)C1=O :: 1
CC(C)Cc1ccc(C(C)/C=C2\CCC(CN3CCCCC3)C2=O)cc1 (stereo not given) :: 90

// query Recall and state the measured growth inhibition for COC(=O)CCCC(=O)NC1=C(Nc2ccccc2)C(=O)c2ccccc2C1=O .
// result 15

// query Recall and state the measured growth inhibition for CC(C)SC(=S)Nc1cc(Cl)c(Cl)cc1Cl .
// result 6

* * *

- TEST: NCI Yeast Anticancer Drug Screen. Data for the rad50 strain (AID 155);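 note: 0% = growth of vehicle-only cultures of the same strain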
- PARTICULARS: S. cerevisiae rad50 strain growth inhibition; at 50.0 µM (retest, dose inferred, filed as 5.0)
- Procedure: Growth inhibition of yeast strains with defined genetic alterations is measured as a screen for potential anti-cancer activity. Selected strains with alterations in DNA damage repair or cell cycle control were exposed to compounds and growth inhibition was measured relative to vehicle treated controls. The strain used in this assay is rad50
Compounds without any hit were thinned out: in the full panel of roughly 79,000, 15% have a hit. Calls of active or inactive are those of the source. No stated cut-off is given here; in the data, active means growth inhibition above about 70%; inactive means the rest. Where a SMILES comes first, the peptide text is derived from it. Bridges are numbered along the chain shown (N, C = ends). [ ]: non-standard residue; d: D form. NMeV = CN[CH](C(=O)O)C(C)C; Sar = CNCC(=O)O
Please state which outcome applies, choosing from yes for active, no for inactive

As a guide, the following entries are already answered.
O/N=C(/CCc1ccccc1)c1ccccc1 :: yes
CC(C)C1NC(=O)C(N)C(C)OC(=O)C(C(C)C)N(C)C(=O)CN(C)C(=O)C2CCCN2C1=O (stereo not given) (tested in a mixture with another compound) (H-TVP[Sar][NMeV]; ester 1-C; configuration not given here) :: yes
O=C1NC(O)c2cccc(Cl)c2O1 (stereo not given) :: yes
Cc1cc(C)nc(NS(=O)(=O)c2ccc(Nc3c4ccccc4nc4c(C(=O)NC(CO)(CO)CO)cccc34)cc2)n1 :: no

Here is another compound to look at.
// query What did the test return for O=C1Nc2c(ccc(Cl)c2I)C1=O ?
// result yes

* * *

- TEST: NCI Yeast Anticancer Drug Screen. Data for the cln2 rad14 strain (AID 165);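 note: 0% = growth equal to vehicle treated cultures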
- PARTICULARS: S. cerevisiae cln2 rad14 strain, at 50.0 µM (retest, dose inferred, filed as 5.0)
About 79,000 compounds went through this panel and 15% of them were active in at least one assay; those are over-represented in the sample as a whole. Active and inactive are the calls of the source. Cut-off read from the data, not from the text of the source: active = growth inhibition above about 70%; inactive = the rest.
Please state which outcome applies, choosing from active, inactive

As a guide, the following entries are already answered.
CCCN1CCN(c2ccc([N+](=O)[O-])c3no[n+]([O-])c23)CC1 :: active
O=C(O)CCCc1ccc2c(c1)CC1(C2)Cc2ccc(CCCC(=O)O)cc2C1 :: inactive
COc1cc(NCC(C#N)C#N)ccc1N=Nc1ccc(Cl)cc1 :: inactive
COc1ccccc1NC(=O)c1ccccc1F :: inactive

// query What did the test return for C[N+]1(C)CCCC(OCCCCCCCCCCCCCCOC2CCC[N+](C)(C)C2)C1 (configuration not stated) ?
// result active

// query What did the test return for COC12CC(=O)C(C(C)=O)=C(O)C1(C)c1c(OC(C)=O)c(C)c(O)c(C(C)=O)c1O2 (configuration not stated) ?
// result inactive

// query What did the test return for O=C(OCCC1CCCCC1)c1cc([N+](=O)[O-])cc([N+](=O)[O-])c1 ?
// result active

// query What did the test return for COc1cc(/C=C2\Sc3scc(-c4cccc([N+](=O)[O-])c4)[n+]3C2=O)cc(OC)c1OC ?
// result active

// query What did the test return for O=C1OC(c2ccccc2)(c2ccccc2)CC1CN1CCOCC1 (configuration not stated) ?
// result active

// query What did the test return for CS(=O)(=O)N\N=C1/C=C\C(=N/NS(C)(=O)=O)CCc2ccc(cc2)CC1 ?
// result inactive

// query What did the test return for CC(=O)Oc1c(O)c2ccccc2c2ccccc12 ?
// result active

* * *

// reported growth inhibition for each item listed
- TEST: NCI Yeast Anticancer Drug Screen. Data for the cln2 rad14 strain (AID 165);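 note: 0% = growth equal to vehicle treated cultures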
- PARTICULARS: S. cerevisiae cln2 rad14 strain, at 50.0 µM (retest, dose inferred, filed as 5.0), active compounds read high
The panel holds about 79,000 compounds, 15% with a hit somewhere; the sample as a whole holds those more often.
Use % as the unit, but write only the number.

N#Cc1c(Cl)nnc(-c2ccccc2)c1-c1ccccc1 :: 66
O=C1CCCC1CN1CCOCC1 (centres undefined) :: 66
Cc1ccc(C(=O)C(CCC#N)(CCC#N)CCC#N)cc1 :: -3
CCCCCC/C=C1\CCC(CN2CCOCC2)C1=O (centres undefined) :: 79
O=C(CC1C(=O)c2ccccc2C1=C1C(=O)c2ccccc2C1=O)c1ccccc1 (centres undefined) :: 69

// query Recall and state the measured growth inhibition for CCOP(=O)(CCC(=O)[C@@]1(O)CC[C@H]2[C@@H]3CCC4=CC(=O)CC[C@]4(C)[C@H]3CC[C@@]21C)OCC .
// result 2

// query Recall and state the measured growth inhibition for CC(NNC(=S)N1CCCC1)c1ccc2ccccc2n1 (centres undefined) .
// result 95

// query Recall and state the measured growth inhibition for CC(C)OP(=O)(OC(C)C)/C(I)=N/Nc1ccc([N+](=O)[O-])cc1 .
// result 14

// query Recall and state the measured growth inhibition for CCCCCCCCCCCCCCCC[NH][Ge]([NH]CCCCCCCCCCCCCCCC)([NH]CCCCCCCCCCCCCCCC)[NH]CCCCCCCCCCCCCCCC .
// result 96

// query Recall and state the measured growth inhibition for CC(=O)O/N=C1/CCC2C3CC=C4CC(OC(C)=O)CCC4(C)C3CCC12C (centres undefined) .
// result 87

* * *

- TEST: NCI Yeast Anticancer Drug Screen. Data for the bub3 strain (AID 167)
- PARTICULARS: S. cerevisiae bub3 mutant strain, at 5.0 µM (retest, dose inferred, filed as 0.5), active compounds read high
Compounds without any hit were thinned out: in the full panel of roughly 79,000, 15% have a hit.
OBSERVATION TYPE: growth inhibition (%)
Use % as the unit, but write only the number.

CSc1nc(C)cc(SCc2ccc(Cl)cc2Cl)n1 :: 2
CCN1/C(=C\c2cc(C)nc(-c3ccccc3)[n+]2C)C=Cc2ccccc21 :: 64
COc1ccc(Cl)c(-c2cc(OC)c(N=N/C(=N/Nc3ccc([N+](=O)[O-])cc3)c3ccc([N+](=O)[O-])cc3)cc2Cl)c1 :: 99
COc1ccc(C=Nc2ccccc2O)cc1 :: 81
C=C1CC[C@H]2C(C)=CC[C@@H]3[C@H](OC(=O)[C@H]3CN3CCN(c4ccc(C)c([N+](=O)[O-])c4)CC3)[C@@H]12 :: 52

// query Recall and state the measured growth inhibition for NC(Cc1ccccc1)c1ccc2cccc3c2c1CC3 (configuration not stated) .
// result -2

// query Recall and state the measured growth inhibition for CCCCCCCCCCCC(=O)OC/C=C/COC(=O)c1ccccc1 .
// result -5

// query Recall and state the measured growth inhibition for CSc1ccc(/C=C2\CN(C)C/C(=C\c3ccc(SC)cc3)C2=O)cc1 .
// result 25

// query Recall and state the measured growth inhibition for S=C(CSc1ccccc1)Nc1cccc2ccccc12 .
// result 4

// query Recall and state the measured growth inhibition for Cc1cc2ccc(N)nc2[nH]c1=O .
// result 1

// query Recall and state the measured growth inhibition for OCC1CCCCCCCCCCC1 .
// result 10

// query Recall and state the measured growth inhibition for COc1ccccc1NC(=O)CC(=O)N1N=C(c2ccccc2)C(N=Nc2ccc(Cl)cc2)C1=O (configuration not stated) .
// result 15

// query Recall and state the measured growth inhibition for CC1CCC(C(C)C2C(O)CC3C4CCC5CC(O)CCC5(C)C4CCC32C)NC1 (configuration not stated) .
// result 2

// query Recall and state the measured growth inhibition for COC(=O)c1nc(N)nc(C(=O)OC)c1C(=O)c1ccccc1 .
// result -3
